Tested on: MHH-NB-11;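 also: growth inhibition of human MHH-NB-11 cells, read out by a cell viability assay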
Assay: cells
Assay type: functional, cell-based, Homo sapiens
Conditions: Homo sapiens, MHH-NB-11
Description: SANGER: Inhibition of human MHH-NB-11 cell growth in a cell viability assay.
pIC50: −log10 of the molar value.
observable: pIC50

Solved entries:
1. COc1cc([C@@H]2c3cc4c(cc3[C@@H](O[C@@H]3O[C@@H]5CO[C@@H](C)O[C@H]5[C@H](O)[C@H]3O)[C@H]3COC(=O)[C@H]23)OCO4)cc(OC)c1O [ETOPOSIDE] | 6.28
2. CC(=O)O[C@@H]1[C@@H](OC(C)=O)[C@@H](O)[C@H](Oc2c(-c3ccc(O)cc3)oc3cc(O)cc(O)c3c2=O)O[C@H]1C | < 5.00
3. CCC(=O)N1CCN(c2ccc(-n3c(=O)ccc4cnc5ccc(-c6cnc7ccccc7c6)cc5c43)cc2C(F)(F)F)CC1 | < 5.92
4. CCC1=C[C@@H]2CN(C1)Cc1c([nH]c3ccccc13)[C@@](C(=O)OC)(c1cc3c(cc1OC)N(C)[C@H]1[C@@](O)(C(=O)OC)[C@H](OC(C)=O)[C@]4(CC)C=CCN5CC[C@]31[C@@H]54)C2 | 7.75
5. COC(=O)CNC(=O)C(=O)OC | < 2.40
6. Cn1cncc1[C@@](N)(c1ccc(Cl)cc1)c1ccc2c(c1)c(-c1cccc(Cl)c1)cc(=O)n2C | < 4.80

State recorded pIC50 for all listed compounds.
1. COc1cc(F)c(F)c(Nc2ccc(I)cc2F)c1NS(=O)(=O)C1(CC(O)CO)CC1 (stereo not drawn)
2. O=C1N=C(NCc2cccs2)S/C1=C\c1ccc2ncccc2c1

## Result
[5.97, "< 5.30"]

----------
Assignment: determine reported IC50 for the given compounds.
System: DU-145
Assay: cells
Format: functional, cell-based, Homo sapiens
Settings: Homo sapiens, DU-145
Description: SANGER: Inhibition of human DU-145 cell growth in a cell viability assay.
Give bare numbers, in µM.

1) COc1cc(F)c(F)c(Nc2ccc(I)cc2F)c1NS(=O)(=O)C1(CC(O)CO)CC1 (centres undefined) | 1.06

Consider the record given below.
// recorded IC50 for O=c1cc(-c2cccc3c2Sc2ccccc2S3)oc(N2CCOCC2)c1 [KU-55933] : 3.27

----------
Consider the following molecules; for each one, report its pIC50.
System: BT-474
Experiment: cells
Assay type: functional, cell-based, Homo sapiens
Settings: Homo sapiens, BT-474
Description: SANGER: Inhibition of human BT-474 cell growth in a cell viability assay.
pIC50: −log10 of the molar value.

1) Cn1cc(C2=C(c3ccc(Cl)cc3Cl)C(=O)NC2=O)c2ccccc21 | < 5.00
2) CN(C)C/C=C/C(=O)Nc1cc2c(Nc3ccc(F)c(Cl)c3)ncnc2cc1O[C@H]1CCOC1 | 7.30

Reported pIC50 of C[C@]1(O)C[C@@H](c2nc(-c3ccc4ccc(-c5ccccc5)nc4c3)c3c(N)nccn32)C1 : < 5.59

----------
System: MKN-1;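 also: growth inhibition of human MKN1 cells, read out by a cell viability measurement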
Experiment: cells
Format: functional, cell-based, Homo sapiens
Conditions: mkn-1
Description: SANGER: Inhibition of human MKN1 cell growth in a cell viability assay.
observable: IC50

IC50 recorded for this compound, Cc1cc([C@@H](C)Nc2ccccc2C(=O)O)c2nc(N3CCOCC3)cc(=O)n2c1 , is > 5.12 µM

----------
System: BT-549
Experiment: cells
Type: functional, cell-based
Conditions: Homo sapiens
Description: SANGER: Inhibition of human BT-549 cell growth in a cell viability assay.
observable: IC50

Dear colleague, could you send me IC50 for each of the items below? Thanks.
1. Cn1cc(C2=C(c3ccc(Cl)cc3Cl)C(=O)NC2=O)c2ccccc21 [SB-216763]
2. CCOc1nc(NC(=O)Cc2cc(OC)ccc2OC)cc(N)c1C#N
3. CN(C)C/C=C/C(=O)Nc1cc2c(Nc3ccc(F)c(Cl)c3)ncnc2cc1O[C@H]1CCOC1 [AFATINIB]

## Result
1. 5.29 µM
2. > 10 µM
3. > 0.5 µM

----------
Test system: CAL-148
Assay: cells
Type: functional, cell-based
Settings: Homo sapiens
Description: SANGER: Inhibition of human CAL-148 cell growth in a cell viability assay.
pIC50: −log10 of the molar value.
observable: pIC50

Solved entries (count: 4):
1) C=C1C(=O)O[C@@H]2C3O[C@]3(C)CC/C=C(\C)CC[C@@H]12 (some centres not stated) | < 5.30
2) C=CCc1cccc(/C=N/NC(=O)CN2CCN(Cc3ccccc3)CC2)c1O [PAC-1] | < 5.59
3) CN(c1ncccc1CNc1nc(Nc2ccc3c(c2)CC(=O)N3)ncc1C(F)(F)F)S(C)(=O)=O [PF-00562271] | < 5.59
4) COc1cc([C@@H]2c3cc4c(cc3[C@@H](O[C@@H]3O[C@@H]5CO[C@@H](C)O[C@H]5[C@H](O)[C@H]3O)[C@H]3COC(=O)[C@H]23)OCO4)cc(OC)c1O [ETOPOSIDE] | 6.20

// for each molecule below, give its pIC50
1. CN1CCN(CCOc2cc(OC3CCOCC3)c3c(Nc4c(Cl)ccc5c4OCO5)ncnc3c2)CC1 [SARACATINIB]
2. CCC1=C[C@@H]2CN(C1)Cc1c([nH]c3ccccc13)[C@@](C(=O)OC)(c1cc3c(cc1OC)N(C)[C@H]1[C@@](O)(C(=O)OC)[C@H](OC(C)=O)[C@]4(CC)C=CCN5CC[C@]31[C@@H]54)C2 [VINORELBINE]
3. C[C@]1(O)C[C@@H](c2nc(-c3ccc4ccc(-c5ccccc5)nc4c3)c3c(N)nccn32)C1 [LINSITINIB]

## Result
1: < 5.70; 2: 7.81; 3: < 5.59

----------
Tested on: SNU-387
Assay: cells
Type: functional, cell-based, Homo sapiens
Conditions: Homo sapiens, SNU-387
Description: SANGER: Inhibition of human SNU-387 cell growth in a cell viability assay.
pIC50: −log10 of the molar value.
Would you mind telling me the reported pIC50 of each entry?

1. CN(c1ncccc1CNc1nc(Nc2ccc3c(c2)CC(=O)N3)ncc1C(F)(F)F)S(C)(=O)=O | 5.60

Provide pIC50 for all items below, preserving their order.
1. Cn1cc(C2=C(c3ccc(Cl)cc3Cl)C(=O)NC2=O)c2ccccc21
2. CCOc1nc(NC(=O)Cc2cc(OC)ccc2OC)cc(N)c1C#N
3. Cc1ccc(Nc2nccc(N(C)c3ccc4c(C)n(C)nc4c3)n2)cc1S(N)(=O)=O

## Result
1. < 5.00
2. < 5.00
3. < 5.10

----------
Tested on: KM-H2
Experiment: cells
Format: functional, cell-based
Conditions: Homo sapiens
Description: SANGER: Inhibition of human KM-H2 cell growth in a cell viability assay.
pIC50: −log10 of the molar value.
Give pIC50 for every item shown.

Please review the following examples before continuing.
1. CN(c1ncccc1CNc1nc(Nc2ccc3c(c2)CC(=O)N3)ncc1C(F)(F)F)S(C)(=O)=O [PF-00562271] | < 5.59
2. C=C1C(=O)O[C@@H]2C3O[C@]3(C)CC/C=C(\C)CC[C@@H]12 (stereo not given in full) | < 5.30

Need pIC50 for each of these compounds.
1. O=C1N=C(NCc2cccs2)S/C1=C\c1ccc2ncccc2c1
2. CNC(=O)c1cc(Oc2ccc(NC(=O)Nc3ccc(Cl)c(C(F)(F)F)c3)cc2)ccn1 [SORAFENIB]
3. Cn1cncc1[C@@](N)(c1ccc(Cl)cc1)c1ccc2c(c1)c(-c1cccc(Cl)c1)cc(=O)n2C [TIPIFARNIB]
4. CCc1nc(N)nc(N)c1-c1ccc(Cl)cc1 [PYRIMETHAMINE]
5. CCC1=C[C@@H]2CN(C1)Cc1c([nH]c3ccccc13)[C@@](C(=O)OC)(c1cc3c(cc1OC)N(C)[C@H]1[C@@](O)(C(=O)OC)[C@H](OC(C)=O)[C@]4(CC)C=CCN5CC[C@]31[C@@H]54)C2 [VINORELBINE]
6. CCC(=O)N1CCN(c2ccc(-n3c(=O)ccc4cnc5ccc(-c6cnc7ccccc7c6)cc5c43)cc2C(F)(F)F)CC1 [TORIN1]
7. CO[C@H]1C[C@@H]2CC[C@@H](C)[C@@](O)(O2)C(=O)C(=O)N2CCCC[C@H]2C(=O)O[C@H]([C@H](C)C[C@@H]2CC[C@@H](O)[C@H](OC)C2)CC(=O)[C@H](C)/C=C(\C)[C@@H](O)[C@@H](OC)C(=O)[C@H](C)C[C@H](C)/C=C/C=C/C=C/1C [SIROLIMUS]

## Result
< 5.30
< 5.40
< 4.80
4.92
8.04
< 5.92
< 7.00

# compound CCOc1nc(NC(=O)Cc2cc(OC)ccc2OC)cc(N)c1C#N ; its pIC50 = < 5.00

----------
System: NCI-H596;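 also: growth inhibition of NCI-H596 cells, read out with a cell viability assay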
Test: cells
Type: functional, cell-based, Homo sapiens
Settings: Homo sapiens, NCI-H596
Description: SANGER: Inhibition of human NCI-H596 cell growth in a cell viability assay.
pIC50: −log10 of the molar value.
Give measured pIC50 for each item. Keep answers brief.

1. CN(C)C/C=C/C(=O)Nc1cc2c(Nc3ccc(F)c(Cl)c3)ncnc2cc1O[C@H]1CCOC1 [AFATINIB] | < 6.30
2. Cn1cncc1[C@@](N)(c1ccc(Cl)cc1)c1ccc2c(c1)c(-c1cccc(Cl)c1)cc(=O)n2C [TIPIFARNIB] | 5.74
3. CN(c1ncccc1CNc1nc(Nc2ccc3c(c2)CC(=O)N3)ncc1C(F)(F)F)S(C)(=O)=O [PF-00562271] | < 5.59
4. O=C(NOCC1CC1)c1ccc(F)c(F)c1Nc1ccc(I)cc1Cl [CI-1040] | < 5.00
5. C=CCNC1=C2C[C@@H](C)C[C@H](OC)[C@H](O)[C@@H](C)/C=C(\C)[C@H](OC(N)=O)[C@@H](OC)/C=C\C=C(/C)C(=O)NC(=CC1=O)C2=O [TANESPIMYCIN] | < 6.00
6. CCC1=C[C@@H]2CN(C1)Cc1c([nH]c3ccccc13)[C@@](C(=O)OC)(c1cc3c(cc1OC)N(C)[C@H]1[C@@](O)(C(=O)OC)[C@H](OC(C)=O)[C@]4(CC)C=CCN5CC[C@]31[C@@H]54)C2 [VINORELBINE] | < 7.19

Given item O=c1cc(-c2cccc3c2Sc2ccccc2S3)oc(N2CCOCC2)c1 [KU-55933] , the value recorded as its pIC50 is < 5.00
